Target System: human GPR17 short isoform (Homo sapiens)
Sequence (Q13304 29-367): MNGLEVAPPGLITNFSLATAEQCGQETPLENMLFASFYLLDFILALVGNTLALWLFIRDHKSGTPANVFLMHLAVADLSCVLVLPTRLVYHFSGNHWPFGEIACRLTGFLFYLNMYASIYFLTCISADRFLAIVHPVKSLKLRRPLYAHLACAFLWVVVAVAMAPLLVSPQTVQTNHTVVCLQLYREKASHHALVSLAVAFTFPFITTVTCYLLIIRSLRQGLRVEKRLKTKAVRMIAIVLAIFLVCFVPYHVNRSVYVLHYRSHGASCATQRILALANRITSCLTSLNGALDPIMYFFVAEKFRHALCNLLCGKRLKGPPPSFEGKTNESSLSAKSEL
Test: GPR17 cAMP assay (TR-FRET cAMP quantification, antagonist mode)
Condition Details: CHO-K1 cells stably expressing human GPR17 short isoform; EC80 of agonist MDL29,951; forskolin 15µM; IBMX 0.5mM; 30 minutes at room temperature; read-out: hGPR17 cAMP IC50
pIC50: −log10 of the molar value.
pIC50 values, listed per item
Readout Label: pIC50

- COc1nc(NS(=O)(=O)c2c[nH]c3c(-c4cnccn4)c(F)ccc23)nc(OC)c1OCCF: 6.89
- COc1nc(NS(=O)(=O)c2c[nH]c3c(-c4ncccn4)c(Cl)ccc23)nc(OC)c1OCCF: 7.10
- COc1nc(NS(=O)(=O)c2c[nH]c3c(-c4ncccn4)c(Cl)c(F)cc23)nc(OC)c1OCC(F)F: 6.92
- COc1nc(NS(=O)(=O)c2c[nH]c3c(-c4cccc(C)n4)c(Cl)ccc23)nc(OC)c1OCC(F)F: 7.55
- COc1nc(NS(=O)(=O)c2c[nH]c3c(-c4cscn4)c(Cl)ccc23)nc(OC)c1OCC(F)F: 7.40
- COc1nc(NS(=O)(=O)c2c[nH]c3c(-c4cnccn4)cccc23)nc(OC)c1OCC(F)F: 6.89
- COc1nc(NS(=O)(=O)c2c[nH]c3c(-c4nccnc4Cl)c(Cl)ccc23)nc(OC)c1OCC(F)F: 7.26
- COc1nc(NS(=O)(=O)c2c[nH]c3c(-c4cnccn4)c(Cl)ccc23)nc(OC)c1OCC(F)F: 7.60
- COc1nc(NS(=O)(=O)c2c[nH]c3c(-c4nccnc4C)cccc23)nc(OC)c1CC(F)F: 7.37
- COc1nc(NS(=O)(=O)c2c[nH]c3c(-c4nccn4C)c(F)ccc23)nc(OC)c1CC(F)F: 7.52
- COc1nc(NS(=O)(=O)c2c[nH]c3c(-c4cscn4)c(Cl)ccc23)nc(OC)c1OC(F)F: 6.83
- COc1nc(NS(=O)(=O)c2c[nH]c3c(-c4cnccn4)c(C)ccc23)nc(OC)c1OC(F)F: 7.17
- COc1nc(NS(=O)(=O)c2c[nH]c3c(-c4nccnc4C)c(Cl)ccc23)nc(OC)c1OCC(F)F: 7.43
- COc1nc(NS(=O)(=O)c2c[nH]c3c(-c4cnn(C)n4)c(Cl)ccc23)nc(OC)c1CC(F)F: 7.49
- COc1nc(NS(=O)(=O)c2c[nH]c3c(-c4ncccn4)c(Cl)ccc23)nc(OC)c1OCC(F)F: 7.32

* * *

Target System: human GPR17 short isoform (Homo sapiens)
Test: GPR17 cAMP assay (TR-FRET cAMP quantification, antagonist mode)
Assay type: cell-based
Condition Details: CHO-K1 cells stably expressing human GPR17 short isoform; EC80 of agonist MDL29,951; forskolin 15µM; IBMX 0.5mM; 30 minutes at room temperature; read-out: hGPR17 cAMP IC50
Rule for this label: 1 means IC50 is less than 0.03 µM; 0 means IC50 is at least 0.03 µM.

- COc1nc(NS(=O)(=O)c2c[nH]c3c(-c4nccnc4Cl)c(Cl)ccc23)nc(OC)c1CC(F)F [Example 65]: 0
- COc1nc(NS(=O)(=O)c2c[nH]c3c(-c4cnccn4)c(Cl)ccc23)nc(OC)c1OCCF [Example 21]: 0
- COc1nc(NS(=O)(=O)c2c[nH]c3c(-c4ccccn4)c(Cl)ccc23)nc(OC)c1CC(F)F [Example 18]: 1
- COc1nc(NS(=O)(=O)c2c[nH]c3c(-c4ncccn4)c(Cl)ccc23)nc(OC)c1C [Example 85]: 0
- COc1nc(NS(=O)(=O)c2c[nH]c3c(-c4cnccn4)c(F)ccc23)nc(OC)c1CC(F)F [Example 31]: 0
- COc1nc(NS(=O)(=O)c2c[nH]c3c(-c4ncccn4)c(Br)ccc23)nc(OC)c1CC(F)F [Example 35]: 0
- COc1nc(NS(=O)(=O)c2c[nH]c3c(-c4cn(C)nn4)c(Cl)ccc23)nc(OC)c1OCC(F)F [Example 101]: 0
- COc1nc(NS(=O)(=O)c2c[nH]c3c(-c4nccnc4C)c(Cl)ccc23)nc(OC)c1CC(F)F [Example 74]: 1
- COc1nc(NS(=O)(=O)c2c[nH]c3c(-c4ccn(C)n4)c(Cl)ccc23)nc(OC)c1OC(F)F [Example 67]: 1
- COc1nc(NS(=O)(=O)c2c[nH]c3c(-c4cnn(C)c4)c(Br)ccc23)nc(OC)c1OCC(F)F [Example 69]: 0
- COc1nc(NS(=O)(=O)c2c[nH]c3c(-c4ncccn4)c(Cl)ccc23)nc(OC)c1CC(F)F [Example 3]: 0
- COc1nc(NS(=O)(=O)c2c[nH]c3c(-c4nccn4C)cccc23)nc(OC)c1OCC(F)F [Example 7]: 0
- COc1nc(NS(=O)(=O)c2c[nH]c3c(-c4cnccn4)c(Cl)ccc23)nc(OC)c1OC(F)F [Example 20]: 0
- COc1nc(NS(=O)(=O)c2c[nH]c3c(-c4cnco4)c(Cl)ccc23)nc(OC)c1OCC(F)F [Example 116]: 0
- COc1nc(NS(=O)(=O)c2c[nH]c3c(-c4ncccn4)c(Cl)ccc23)nc(OC)c1OC(F)F [Example 23]: 0
- COc1nc(NS(=O)(=O)c2c[nH]c3c(-c4ncc5n4CCC5)cccc23)nc(OC)c1CC(F)F [Example 121]: 0
- COc1nc(NS(=O)(=O)c2c[nH]c3c(-c4cnoc4)c(Cl)ccc23)nc(OC)c1OC(F)F [Example 119]: 0
- COc1nc(NS(=O)(=O)c2c[nH]c3c(-c4cncc(C)n4)c(Cl)ccc23)nc(OC)c1OCC(F)F [Example 88]: 1
- COc1nc(NS(=O)(=O)c2c[nH]c3c(-c4ccnnc4)c(Cl)ccc23)nc(OC)c1OCC(F)F [Example 95]: 0
- COc1nc(NS(=O)(=O)c2c[nH]c3c(-c4cccnn4)c(Br)ccc23)nc(OC)c1CC(F)F [Example 43]: 0
- COc1nc(NS(=O)(=O)c2c[nH]c3c(-c4cc(C)ncn4)c(Cl)ccc23)nc(OC)c1OCC(F)F [Example 96]: 0
- COc1nc(NS(=O)(=O)c2c[nH]c3c(-c4cnc(Cl)cn4)c(Cl)ccc23)nc(OC)c1OCC(F)F [Example 90]: 0
- COc1nc(NS(=O)(=O)c2c[nH]c3c(-c4ncccn4)c(C)ccc23)nc(OC)c1OCCF [Example 56]: 0
- COc1nc(NS(=O)(=O)c2c[nH]c3c(-c4ncccn4)c(C(F)F)ccc23)nc(OC)c1OCC(F)F [Example 49]: 0
- COc1nc(NS(=O)(=O)c2c[nH]c3c(-c4cocn4)c(Cl)ccc23)nc(OC)c1OCC(F)F [Example 14]: 0
- COc1nc(NS(=O)(=O)c2c[nH]c3c(-c4ccnc(C)n4)c(Cl)ccc23)nc(OC)c1OCC(F)F [Example 62]: 0
- COc1nc(NS(=O)(=O)c2c[nH]c3c(-c4ncccn4)c(C)ccc23)nc(OC)c1CC(F)F [Example 52]: 1
- COc1nc(NS(=O)(=O)c2c[nH]c3c(-c4nnccc4C)cccc23)nc(OC)c1OCC(F)F [Example 13]: 0
- COc1nc(NS(=O)(=O)c2c[nH]c3c(-c4nccnc4C)c(Cl)ccc23)nc(OC)c1OC(F)F [Example 81]: 0
- COc1nc(NS(=O)(=O)c2c[nH]c3c(-c4ncccn4)c(Br)ccc23)nc(OC)c1OCC(F)F [Example 38]: 0

* * *

Target System: human GPR17 short isoform (Homo sapiens)
Test: GPR17 cAMP assay (TR-FRET cAMP quantification, antagonist mode)
Condition Details: CHO-K1 cells stably expressing human GPR17 short isoform; EC80 of agonist MDL29,951; forskolin 15µM; IBMX 0.5mM; 30 minutes at room temperature; read-out: hGPR17 cAMP IC50
Text: GPR17 cAMP Assay Protocol: […] Changes in intracellular cyclic adenosine monophosphate (cAMP) levels were quantified using the Nano-TRF Detection Assay kit (Roche Diagnostics, Cat. No. 05214386001). This assay allows for direct cAMP quantification in a homogeneous solution. cAMP is detected based on time-resolved fluorescence energy transfer (TR-FRET) and competitive binding of ruthenylated cAMP and endogenous cAMP to an anti-cAMP monoclonal antibody labeled with AlexaFluor-700. […]
Below is a list of entries, each paired with its recorded IC50 value.
Readout Label: IC50 (nM)

• COc1nc(NS(=O)(=O)c2c[nH]c3c(-c4ncn(C)n4)c(Cl)ccc23)nc(OC)c1OCC(F)F [Example 104] = 113
• COc1nc(NS(=O)(=O)c2c[nH]c3c(-c4cccnn4)c(Cl)ccc23)nc(OC)c1OCC(F)F [Example 4] = 44
• COc1nc(NS(=O)(=O)c2c[nH]c3c(-c4cnc(Cl)cn4)c(Cl)ccc23)nc(OC)c1CC(F)F [Example 91] = 225
• COc1nc(NS(=O)(=O)c2c[nH]c3c(-c4nccnc4F)c(Cl)ccc23)nc(OC)c1OCC(F)F [Example 98] = 35
• COc1nc(NS(=O)(=O)c2c[nH]c3c(-c4cnccn4)c(F)ccc23)nc(OC)c1OC(F)F [Example 34] = 407
• COc1nc(NS(=O)(=O)c2c[nH]c3c(-c4cccc(C)n4)c(Cl)ccc23)nc(OC)c1CC(F)F [Example 93] = 24
• COc1nc(NS(=O)(=O)c2c[nH]c3c(-c4cnco4)c(Cl)ccc23)nc(OC)c1OC(F)F [Example 117] = 106
